Numbers sourced from patent US20240158446A1.

target system: GDP-bound KRAS wild-type protein (Homo sapiens)
protocol description: Binding to KRAS by surface plasmon resonance (SPR), Single Cycle Kinetics
settings: SPR Single Cycle Kinetics, GDP-bound KRAS wild-type protein, 1:1 binding model; read-out: KRAS KD
quantity name: Kd

CCC(CC)[C@H]1C(=O)N(C)[C@H](C(=O)N(C)C)CC(=O)N(C)[C@@H](COC)C(=O)N[C@@H]([C@@H](C)CC)C(=O)N(C)CC(=O)N(C)[C@H]2C/C=C\CCN(C2=O)[C@@H](Cc2ccc(C(F)(F)F)cc2)C(=O)N(C)CC(=O)N[C@@H](CCc2cc(F)c(C(F)(F)F)c(F)c2)C(=O)N2CC[C@H]2C(=O)NC2(CC(C)(C)C2)C(=O)N1C	1.8 nM
CCO[C@@H]1C[C@H]2C(=O)NC3(CCC3)C(=O)N(C)[C@@H](C3CCCC3)C(=O)N(C)[C@H](C(=O)N(C)C)CC(=O)N(C)[C@@H](COC)C(=O)N[C@@H]([C@@H](C)CC)C(=O)N(C)CC(=O)N(C)[C@H]3CCCCN(C3=O)[C@@H](Cc3ccc(C(F)(F)F)cc3)C(=O)N(C)CC(=O)N[C@@H](CCc3cc(F)c(C(F)(F)F)c(F)c3)C(=O)N2C1	0.011 nM
CC[C@H](C)[C@@H]1NC(=O)[C@H](CC(C)C)N(C)C(=O)C[C@@H](C(=O)N2CCOCC2)N(C)C(=O)[C@H](C2CCCC2)N(C)C(=O)C2(CCCC2)NC(=O)[C@@H]2CCCN2C(=O)[C@H](CCc2cc(F)c(C(F)(F)F)c(F)c2)NC(=O)CN(C)C(=O)[C@H](Cc2ccc(C(F)(F)F)cc2)N2CCCC[C@@H](C2=O)N(C)C(=O)[C@H](C)N(C)C1=O	18 nM

* * *

# maps each entry to its pKd
target system: GDP-bound KRAS wild-type protein (Homo sapiens)
protocol description: Binding to KRAS by surface plasmon resonance (SPR), Single Cycle Kinetics
settings: SPR, Single Cycle Kinetics, GDP-bound KRAS wild-type protein; read-out: KRAS KD
pKd: −log10 of the molar value.
quantity name: pKd

CCCN1C(=O)C[C@@H](C(=O)N(C)C)N(C)C(=O)[C@H](C2CCCC2)N(C)C(=O)C2(CCC2)NC(=O)[C@@H]2C[C@@H](OCC)CN2C(=O)[C@H](CCc2cc(F)c(C(F)(F)F)c(F)c2)NC(=O)CN(C)C(=O)[C@H](Cc2ccc(C(F)(F)F)cc2)N2CC/C=C\C[C@@H](C2=O)N(C)C(=O)CNC(=O)[C@H]([C@@H](C)CC)NC(=O)[C@@H]1CC(C)C [PP1826]	9.49
CCC[C@H]1C(=O)N[C@@H]([C@@H](C)CC)C(=O)N2CCC[C@H]2C(=O)N(C)[C@H]2C/C=C\CCN(C2=O)[C@@H](Cc2ccc(C(F)(F)F)cc2)C(=O)N(C)CC(=O)N[C@@H](CCc2ccc(C(F)(F)F)c(OC)c2)C(=O)N2C[C@H](OCC)C[C@H]2C(=O)N(C)C2(CCC2)C(=O)N(C)[C@@H](C2CCCC2)C(=O)N(C)[C@H](C(=O)N(C)C)CC(=O)N1C [PP2320]	9.96
CCO[C@@H]1C[C@H]2C(=O)NC3(CC(C)(C)C3)C(=O)N(C)[C@@H](C3CCCC3)C(=O)N(C)[C@H](C(=O)N(C)C)CC(=O)N(C)[C@@H](CC(F)(F)F)C(=O)N[C@@H]([C@@H](C)CC)C(=O)N(C)CC(=O)N(C)[C@H]3C/C=C\CCN(C3=O)[C@@H](Cc3ccc(C(F)(F)F)cc3)C(=O)N(C)CC(=O)N[C@@H](CCc3cc(F)c(C(F)(F)F)c(F)c3)C(=O)N2C1 [PP1644]	10.42

* * *

target system: GDP-bound KRAS wild-type protein (Homo sapiens, UniProt P01116)
Sequence (P01116 whole entry): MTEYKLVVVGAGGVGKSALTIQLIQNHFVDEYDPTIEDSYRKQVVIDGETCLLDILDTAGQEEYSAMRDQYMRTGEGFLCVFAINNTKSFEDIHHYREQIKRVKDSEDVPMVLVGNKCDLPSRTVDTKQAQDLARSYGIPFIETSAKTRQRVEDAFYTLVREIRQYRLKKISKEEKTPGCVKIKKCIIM
protocol description: Binding to KRAS by surface plasmon resonance (SPR), Single Cycle Kinetics
settings: SPR Single Cycle Kinetics, GDP-bound KRAS wild-type protein, 1:1 binding model; read-out: KRAS KD
*1 amine or outer side, *2 acyl side, *3 side chain or, on linkers, in order; H or OH if unused. Where a SMILES comes first, the peptide text is derived from it. Bridges are numbered along the chain shown (N, C = ends). [ ]: non-standard residue; d: D form. The star is where a group is joined. hPhe(3-Cl-4-CF3) = N[C@@H](CCc1ccc(C(F)(F)F)c(Cl)c1)C(=O)O; NPrPhe(4-CF3) = CCCN[C@@H](Cc1ccc(C(F)(F)F)cc1)C(=O)O; X19 = CCCN([C@@H](CC1CCC(F)(F)CC1)C(=O)[*:2])[*:1]; NMeGly(cPent) = CN[C@H](C(=O)O)C1CCCC1; Pro(4,4-F2) = O=C(O)[C@@H]1CC(F)(F)CN1; NMeD = CN[C@@H](CC(=O)O)C(=O)O; NMeL = CN[C@@H](CC(C)C)C(=O)O; Morpholide = C1CN(*)CCO1; NMeA = CN[C@@H](C)C(=O)O; Ac5c = NC1(C(=O)O)CCCC1; Aze = O=C(O)[C@@H]1CCN1; Ac4c = NC1(C(=O)O)CCC1; Sar = CNCC(=O)O
Rule: Kd below 1000 pM gives Criterion met, anything at or above gives Criterion not met.

CCCN1C(=O)CN(C)C(=O)CN(C)C(=O)[C@H]([C@@H](C)CC)NC(=O)[C@H](CC(C)C)N(C)C(=O)C[C@@H](C(=O)N(C)C)N(C)C(=O)[C@H](C2CCCC2)N(C)C(=O)C2(CCC2)NC(=O)[C@@H]2CCCN2C(=O)[C@H](CCc2ccc(C(F)(F)F)c(Cl)c2)NC(=O)CN(C)C(=O)[C@@H]1Cc1ccc(C(F)(F)F)cc1 [PP0412] ([NMeL]I[Sar][Sar][NPrPhe(4-CF3)][Sar][hPhe(3-Cl-4-CF3)]P[Ac4c][NMeGly(cPent)][NMeD]-NMe2; lactam N-11)	Criterion met
CCCN1C(=O)[C@@H]2CCN2C(=O)[C@H](C)N(C)C(=O)[C@H]([C@@H](C)CC)NC(=O)[C@H](CC(C)C)N(C)C(=O)C[C@@H](C(=O)N2CCOCC2)N(C)C(=O)[C@H](C2CCCC2)N(C)C(=O)C2(CCCC2)NC(=O)[C@@H]2CCCN2C(=O)[C@H](CCc2ccc(C(F)(F)F)c(Cl)c2)NC(=O)CN(C)C(=O)[C@@H]1CC1CCC(F)(F)CC1 [PP0527] ([NMeL]I[NMeA][Aze][X19][Sar][hPhe(3-Cl-4-CF3)]P[Ac5c][NMeGly(cPent)][NMeD]-Morpholide; lactam N-11)	Criterion met
CCC(CC)[C@H]1C(=O)N(C)[C@H](C(=O)N(C)C)CC(=O)N(C)[C@@H](COC)C(=O)N[C@@H]([C@@H](C)CC)C(=O)N2CCC[C@H]2C(=O)N(C)[C@H]2C/C=C\CCN(C2=O)[C@@H](Cc2ccc(C(F)F)cc2)C(=O)N(C)CC(=O)N[C@@H](CCc2ccc(Cl)c(Cl)c2)C(=O)N2C[C@H](OC3CCCC3)C[C@H]2C(=O)NC2(CC(C)(C)C2)C(=O)N1C [PP2652]	Criterion not met
CCO[C@@H]1C[C@H]2C(=O)NC3(CCC3)C(=O)N(C)[C@@H](C3CCCC3)C(=O)N(C)[C@H](C(=O)N(C)C)CC(=O)N(C)[C@@H](CC3CCC3)C(=O)N[C@@H]([C@@H](C)CC)C(=O)N(C)CC(=O)N(C)[C@H]3CCCCN(C3=O)[C@@H](Cc3ccc(C(F)(F)F)cc3)C(=O)N(C)CC(=O)N[C@@H](CCc3cc(F)c(C(F)(F)F)c(F)c3)C(=O)N2C1 [PP0698]	Criterion met
CCO[C@@H]1C[C@H]2C(=O)NC3(CCC3)C(=O)N(C)[C@@H](C3CCCC3)C(=O)N(CC)[C@H](C(=O)N(C)C)CC(=O)N(C)[C@@H](CC)C(=O)N[C@@H]([C@@H](C)CC)C(=O)N(C)CC(=O)N(C)[C@H]3CCCCCN(C3=O)[C@@H](Cc3ccc(C(F)(F)F)cc3)C(=O)N(C)CC(=O)N[C@@H](CCc3cc(F)c(C(F)(F)F)c(F)c3)C(=O)N2C1 [PP0633]	Criterion not met
CCO[C@@H]1C[C@H]2C(=O)NC3(CCC3)C(=O)N(C)[C@@H](C3CCCC3)C(=O)N(C)[C@H](C(=O)N(C)C)CC(=O)N(C)[C@@H](C)C(=O)N[C@@H]([C@@H](C)CC)C(=O)N(C)CC(=O)N(C)[C@H]3CCCCN(C3=O)[C@@H](Cc3ccc(C(F)(F)F)cc3)C(=O)N(C)CC(=O)N[C@@H](CCc3cc(F)c(C(F)(F)F)c(F)c3)C(=O)N2C1 [PP0587]	Criterion met
CCCN1C(=O)CN(C)C(=O)[C@@H]2CCN2C(=O)[C@H]([C@@H](C)CC)NC(=O)[C@H](CC(C)C)N(C)C(=O)C[C@@H](C(=O)N(C)C)NC(=O)[C@H](C2CCCC2)N(C)C(=O)C2(CCC2)NC(=O)[C@@H]2CCCN2C(=O)[C@H](CCc2ccc(C(F)(F)F)c(Cl)c2)NC(=O)CN(C)C(=O)[C@@H]1Cc1ccc(C(F)(F)F)cc1 [PP0374] ([NMeL]I[Aze][Sar][NPrPhe(4-CF3)][Sar][hPhe(3-Cl-4-CF3)]P[Ac4c][NMeGly(cPent)]D-NMe2; lactam N-11)	Criterion not met
CC[C@H](C)[C@@H]1NC(=O)[C@H](CC(C)C)N(C)C(=O)C[C@@H](C(=O)N2CCOCC2)N(C)C(=O)[C@H](C2CCCC2)N(C)C(=O)C2(CCCC2)NC(=O)[C@@H]2[C@@H](O)CCN2C(=O)[C@H](CCc2cc(F)c(C(F)(F)F)c(F)c2)NC(=O)CN(C)C(=O)[C@H](Cc2ccc(C(F)(F)F)cc2)N2CCCC[C@@H](C2=O)N(C)C(=O)CN(C)C1=O [PP0558]	Criterion met
CCCN1C(=O)[C@@H]2CCN2C(=O)[C@H](C)N(C)C(=O)[C@H]([C@@H](C)CC)NC(=O)[C@H](CC(C)C)N(C)C(=O)C[C@@H](C(=O)N(C)C)NC(=O)[C@H](C2CCCC2)N(C)C(=O)C2(CCC2)NC(=O)[C@@H]2CC(F)(F)CN2C(=O)[C@H](CCc2ccc(C(F)(F)F)c(Cl)c2)NC(=O)CN(C)C(=O)[C@@H]1Cc1ccc(C(F)(F)F)cc1 [PP0382] ([NMeL]I[NMeA][Aze][NPrPhe(4-CF3)][Sar][hPhe(3-Cl-4-CF3)][Pro(4,4-F2)][Ac4c][NMeGly(cPent)]D-NMe2; lactam N-11)	Criterion met
